Quick list: EC50 nM (Obeca STAT5 assay) per entry.
Target: T1, chimeric Hu-Leptin/Mu-EPO receptor (human; mouse, UniProt P48357 22-839; P14753 250-507)
T1 sequence (looked up): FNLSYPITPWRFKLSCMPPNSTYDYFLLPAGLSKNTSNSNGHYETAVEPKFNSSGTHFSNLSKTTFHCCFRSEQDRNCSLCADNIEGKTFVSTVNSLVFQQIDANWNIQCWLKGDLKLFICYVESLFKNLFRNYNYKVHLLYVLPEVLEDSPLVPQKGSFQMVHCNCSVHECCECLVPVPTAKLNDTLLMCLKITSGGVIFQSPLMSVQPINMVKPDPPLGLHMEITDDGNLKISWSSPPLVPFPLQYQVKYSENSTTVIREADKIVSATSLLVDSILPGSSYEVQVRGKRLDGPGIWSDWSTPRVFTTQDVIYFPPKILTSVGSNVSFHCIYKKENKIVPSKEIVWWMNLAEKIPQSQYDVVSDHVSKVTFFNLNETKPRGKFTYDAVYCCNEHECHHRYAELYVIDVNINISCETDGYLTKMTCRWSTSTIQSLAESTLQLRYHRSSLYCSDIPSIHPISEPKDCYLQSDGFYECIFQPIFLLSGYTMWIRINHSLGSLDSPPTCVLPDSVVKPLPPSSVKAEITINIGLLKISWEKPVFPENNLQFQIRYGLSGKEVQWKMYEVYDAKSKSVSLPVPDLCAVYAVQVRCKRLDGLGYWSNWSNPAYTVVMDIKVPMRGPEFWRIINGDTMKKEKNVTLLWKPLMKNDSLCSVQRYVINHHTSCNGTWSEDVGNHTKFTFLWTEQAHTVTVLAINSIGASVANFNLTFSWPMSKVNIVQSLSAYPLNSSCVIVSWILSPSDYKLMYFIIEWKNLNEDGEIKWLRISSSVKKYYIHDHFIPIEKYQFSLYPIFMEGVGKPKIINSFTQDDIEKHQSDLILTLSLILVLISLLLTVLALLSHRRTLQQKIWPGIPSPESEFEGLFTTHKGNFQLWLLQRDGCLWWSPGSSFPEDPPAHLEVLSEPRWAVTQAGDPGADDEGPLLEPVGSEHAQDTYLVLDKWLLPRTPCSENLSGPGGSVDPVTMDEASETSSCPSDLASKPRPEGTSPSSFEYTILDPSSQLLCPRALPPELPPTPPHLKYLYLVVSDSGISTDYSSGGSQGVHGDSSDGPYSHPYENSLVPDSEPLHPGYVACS
Assay: cell-based or functional assay
Unit nM implied. Number only.

{"binder": "Cmpd 71 (other) MLAEAKEAANAELDSYGVSDFYKRLIDKAKTVEGVEALKDAILAALPTGGGGSGGGSGGGSGGGSASPIQRVQDDTKTLIKTIITRINDISHTQSVSSKQKVTGLDFIPGLHPILTLSGMDQILATYQQILTSLQSRNVIQISNDLENLRDLLHVLAFSKSCPVPRARGSDTIKGLGNVLRASVHSTEVVALSRLKAALQDMLRQLDRNPGC", "units text": "nM", "numeric value": 1.26}

The measured EC50 nM (Obeca STAT5 assay) associated with Cmpd 63 (printed with SEQ ID NO: 659 in Table X4) (other) MGSLAEAKEAANAELDSYGVSDFYKRLIDKAKTVEGVEALKDAILAALPTGGGGSGGGSGGGSGGGSASVPIQKVQDDTKTLIKTIVTRINDISHTQSVSSKQKVTGLEFIPGLHPILTLSKMDQTLAVYQQILTSMPSRNVIQISNDLENLRDLLHVLAFSKSCSLPQASGLETLESLGEVLEASGYSTEVVALSRLQGSLQDILQQLDLSPEC reads 0.785

The measured EC50 nM (Obeca STAT5 assay) associated with PEP07986-neutral linker-A500 (Compound 2) (other, also called Cmpd 2; PEP07986-Neutral-A500) MGSLAEAKEAANAELDSYGVSDFYKRLIDKAKTVEGVEALKDAILAALPTGGGGSGGGSGGGSGGGSASVPIQKVQDDTKTLIKTIVTRINDISHTQSVSSKQKVTGLEFIPGLHPILTLSKMDQTLAVYQQILTSMPSRNVIQISNDLENLRDLLHVLAFSKSCHLPQASGLETLESLGGVLEASGYSTEVVALSRLQGSLQDMLQQLDLSPGC reads 0.725

Values were extracted from patent US20140256621A1.
